EC50 by entry:
Biological target: GPR39 (Homo sapiens, UniProt O43194)
Sequence (O43194 1-453): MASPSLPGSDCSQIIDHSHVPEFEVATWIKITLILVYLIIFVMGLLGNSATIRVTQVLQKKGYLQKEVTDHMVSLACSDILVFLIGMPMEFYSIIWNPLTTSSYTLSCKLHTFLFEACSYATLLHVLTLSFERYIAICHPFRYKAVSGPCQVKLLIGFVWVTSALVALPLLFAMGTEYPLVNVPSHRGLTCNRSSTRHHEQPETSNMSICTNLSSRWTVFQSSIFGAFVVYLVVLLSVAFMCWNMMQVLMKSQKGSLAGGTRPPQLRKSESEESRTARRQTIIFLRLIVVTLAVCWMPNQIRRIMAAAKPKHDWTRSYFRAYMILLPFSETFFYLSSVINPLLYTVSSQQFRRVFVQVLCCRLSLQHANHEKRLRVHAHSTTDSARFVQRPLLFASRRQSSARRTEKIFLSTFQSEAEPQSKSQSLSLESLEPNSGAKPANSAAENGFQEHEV
Assay: luciferase assay system (SRE luciferase reporter gene) for GPR39 in CV-1 cells
Details: EC50, CV-1 cells, GPR39 and SRE luciferase adenovirus, treated 6 hours, luminometer
Square brackets hold non-standard residues; d marks the D form. Peptide text beside a SMILES is read from it. * marks the point of attachment. His(Trt) = N[C@@H](Cc1cn(C(c2ccccc2)(c2ccccc2)c2ccccc2)cn1)C(=O)O; His(τ-CHPh2) = N[C@@H](Cc1cn(C(c2ccccc2)c2ccccc2)cn1)C(=O)O; dPhe(4-Cl) = N[C@H](Cc1ccc(Cl)cc1)C(=O)O; dPhe(4-Me) = Cc1ccc(C[C@@H](N)C(=O)O)cc1; Octanoyl = CCCCCCCC(=O)*
Response body: numeric value in nM, unit text excluded.

molecule	target_under_test	EC50, nM
CCCCCCCC(=O)NCCCC[C@H](NC(=O)[C@@H](N)Cc1cn(C(c2ccccc2)c2ccccc2)cn1)C(=O)N[C@H](Cc1ccc(C)cc1)C(=O)N[C@@H](Cc1ccc(O)cc1)C(=O)O	GPR39 (Homo sapiens, UniProt O43194)	7
CCCCCCCC(=O)NCCCC[C@H](NC(=O)[C@@H](N)Cc1cn(C(c2ccccc2)(c2ccccc2)c2ccc(C)cc2)cn1)C(=O)N[C@@H](Cc1ccccc1)C(=O)N[C@@H](Cc1ccc(O)cc1)C(=O)O	GPR39 (Homo sapiens, UniProt O43194)	1840
CCCCCCCC(=O)NCCCC[C@H](NC(=O)[C@@H](N)Cc1cn(C(c2ccccc2)c2ccccc2)cn1)C(=O)N[C@H](Cc1ccc(C)cc1)C(=O)N[C@@H](Cc1ccc(O)cc1)C(N)=O [HKFY-66] (H-[His(τ-CHPh2)]K(Octanoyl)[dPhe(4-Me)]Y-NH2)	GPR39 (Homo sapiens, UniProt O43194)	11

The record that follows has no EC50 shown yet.
input: Query (molecule): CCCCCCCC(=O)NCCCC[C@@H](NC(=O)[C@@H](N)Cc1cn(C(c2ccccc2)(c2ccccc2)c2ccccc2)cn1)C(=O)N[C@H](Cc1ccc(Cl)cc1)C(=O)N[C@@H](Cc1ccc(O)cc1)C(=O)O [HKFY-16] (H-[His(Trt)][dK](Octanoyl)[dPhe(4-Cl)]Y-OH) ; field requested: EC50
output: 240
